pKi overview
target: GST-tagged-Wee1 kinase (Homo sapiens, UniProt P30291)
Sequence (P30291 whole entry): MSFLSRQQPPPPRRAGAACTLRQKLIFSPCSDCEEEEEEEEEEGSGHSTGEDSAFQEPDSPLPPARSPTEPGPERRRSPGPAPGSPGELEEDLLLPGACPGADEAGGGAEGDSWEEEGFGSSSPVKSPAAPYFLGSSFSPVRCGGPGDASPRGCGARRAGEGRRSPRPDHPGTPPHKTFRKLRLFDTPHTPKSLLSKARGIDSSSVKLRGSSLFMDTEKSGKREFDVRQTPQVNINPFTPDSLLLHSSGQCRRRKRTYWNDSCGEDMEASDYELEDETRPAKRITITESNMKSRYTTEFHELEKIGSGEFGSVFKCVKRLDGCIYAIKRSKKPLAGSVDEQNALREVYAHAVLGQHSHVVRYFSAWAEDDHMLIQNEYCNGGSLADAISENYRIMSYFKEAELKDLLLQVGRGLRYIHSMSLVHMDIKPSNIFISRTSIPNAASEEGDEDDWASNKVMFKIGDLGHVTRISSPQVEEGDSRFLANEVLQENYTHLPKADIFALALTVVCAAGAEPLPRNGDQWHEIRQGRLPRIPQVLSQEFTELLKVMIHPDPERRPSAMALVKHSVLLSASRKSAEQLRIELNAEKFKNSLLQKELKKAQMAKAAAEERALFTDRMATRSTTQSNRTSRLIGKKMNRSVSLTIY
pKi: −log10 of the molar value.

O=c1c2cnc(Nc3cnc4c(c3)CNCC4)nc2n2ccnc2n1-c1c(F)cccc1Cl	7.00 to 8.00
O=c1c2cnc(Nc3ccc(C4CCNC4)cc3)nc2n2ccnc2n1-c1ccccc1Cl (stereo not drawn)	> 8.00
COc1cc(Nc2ncc3c(=O)n(-c4ccccc4Cl)c4nccn4c3n2)ccc1N1CCN(C(C)C)CC1	> 8.00
CN1CCN(c2ccc(Nc3ncc4c(=O)n(-c5ccccc5Cl)c5nnnn5c4n3)cc2)CC1	7.00 to 8.00

Log: GST-tagged-Wee1 kinase (Homo sapiens, UniProt P30291), compound O=c1c2cnc(Nc3ccc(N4CCC(F)(F)CC4)cc3)nc2n2ccnc2n1-c1c(Cl)cccc1Cl , pKi = > 8.00

Log: GST-tagged-Wee1 kinase (Homo sapiens, UniProt P30291), compound CN1Cc2cc(Nc3ncc4c(=S)n(-c5ccccc5Cl)c5nccn5c4n3)ccc2C(C)(C)C1 , pKi = > 8.00

Log: GST-tagged-Wee1 kinase (Homo sapiens, UniProt P30291), compound O=c1c2cnc(Nc3ccc4c(c3)CC(N3CCCC3)C4)nc2n2ccnc2n1-c1c(F)cccc1Cl (stereo not drawn) , pKi = > 8.00

Log: GST-tagged-Wee1 kinase (Homo sapiens, UniProt P30291), compound O=c1c2cnc(Nc3ccc(CN4CCCC4)cc3)nc2n2ccnc2n1-c1ccccc1Cl , pKi = > 8.00

Log: GST-tagged-Wee1 kinase (Homo sapiens, UniProt P30291), compound CN1CCN(c2ccc(Nc3ncc4c(=O)n(-c5ccc(C(F)(F)F)cc5Cl)c5nccn5c4n3)cc2)CC1 , pKi = < 7.00

Log: GST-tagged-Wee1 kinase (Homo sapiens, UniProt P30291), compound CS(=O)(=O)N1CCC(Nc2ccc(Nc3ncc4c(=O)n(-c5c(Cl)cccc5Cl)c5nccn5c4n3)cc2)CC1 , pKi = > 8.00

----------
target: UniProt:P30291
pKi: −log10 of the molar value.
pKi overview

The cases that follow already have their pKi on record.
CN1CCN(c2c(Cl)cc(Nc3ncc4c(=O)n(-c5ccccc5Cl)c5nccn5c4n3)cc2C(F)(F)F)CC1 [Example 353]	< 7.00
CN1CCN(c2ccc(Nc3ncc4c(=N)n(-c5ccccc5Cl)c5nccn5c4n3)cc2)CC1 [Example 333]	> 8.00
Cc1cc(Nc2ncc3c(=O)n(-c4ccccc4Cl)c4nccn4c3n2)ccc1O [Example 102]	> 8.00

Here's the next entry for you.
Log: UniProt:P30291, molecule CC1(C)CN(CCCC(F)(F)F)Cc2cc(Nc3ncc4c(=O)n(-c5ccccc5Cl)c5nccn5c4n3)ccc21 [Example 145] , pKi = > 8.00

----------
biological target: GST-tagged-Wee1 kinase (Homo sapiens, UniProt P30291)
pKi: −log10 of the molar value.
pKi overview

CN1CCN(c2ccc(Nc3ncc4c(=O)n(-c5c(Cl)cc(F)cc5Cl)c5nccn5c4n3)cc2)CC1	> 8.00
O=c1c2cnc(Nc3ccc4c(c3)CCCNC4)nc2n2ccnc2n1-c1ccccc1Cl	> 8.00
CN1C(C)(C)c2ccc(Nc3ncc4c(=O)n(-c5c(Cl)cccc5Cl)c5nccn5c4n3)cc2C1(C)C	> 8.00
CN1CCC(c2ccc(Nc3ncc4c(=O)n(-c5ccccc5Cl)c5nccn5c4n3)cc2)CC1	> 8.00
CN(C)C1CCN(c2ccc(Nc3ncc4c(=O)n(-c5c(Cl)cccc5Cl)c5nccn5c4n3)cc2)CC1	> 8.00
O=c1c2cnc(Nc3ccc(C(F)(F)F)cc3)nc2n2ccnc2n1-c1ccccc1Cl	< 7.00
O=C(Nc1ccc(Nc2ncc3c(=O)n(-c4ccccc4Cl)c4nccn4c3n2)cc1)C1CCCC1	7.00 to 8.00
CN1CCN(c2ccc(Nc3ncc4c(=O)n(-c5cccc(F)c5)c5nccn5c4n3)cc2)CC1	7.00 to 8.00

Memo: O=c1c2cnc(Nc3ccc(-c4cn5c(n4)SCC5)cc3)nc2n2ccnc2n1-c1ccccc1Cl , reported pKi: 7.00 to 8.00

Memo: CC1SC(c2ccc(Nc3ncc4c(=O)n(-c5ccccc5Cl)c5nccn5c4n3)cc2)NC1=O (stereo not drawn) , reported pKi: 7.00 to 8.00

Memo: CN1CCC2(CC1)CCN(c1ccc(Nc3ncc4c(=O)n(-c5c(Cl)cccc5Cl)c5nccn5c4n3)cc1)CC2 , reported pKi: > 8.00

Memo: CC1(C)CN(S(C)(=O)=O)Cc2cc(Nc3ncc4c(=O)n(-c5c(F)cccc5Cl)c5nccn5c4n3)ccc21 , reported pKi: > 8.00

Memo: O=C(Nc1ccc(Nc2ncc3c(=O)n(-c4ccccc4Cl)c4nccn4c3n2)cc1)c1ccncc1 , reported pKi: > 8.00

Memo: CS(=O)(=O)N1Cc2cc(Nc3ncc4c(=O)n(-c5c(Cl)cccc5Cl)c5nccn5c4n3)ccc2C2(CC2)C1 , reported pKi: > 8.00

Memo: O=c1c2cnc(Nc3ccc(N[C@H]4CN5CCC4CC5)cc3)nc2n2ccnc2n1-c1ccccc1Cl , reported pKi: > 8.00
